So I've got a bunch of binders here, and I need their MC4R cAMP EC50 values.
TESTED_SYSTEM: human melanocortin 4 receptor (human, UniProt P32245 1-332)
Sequence (P32245 whole entry): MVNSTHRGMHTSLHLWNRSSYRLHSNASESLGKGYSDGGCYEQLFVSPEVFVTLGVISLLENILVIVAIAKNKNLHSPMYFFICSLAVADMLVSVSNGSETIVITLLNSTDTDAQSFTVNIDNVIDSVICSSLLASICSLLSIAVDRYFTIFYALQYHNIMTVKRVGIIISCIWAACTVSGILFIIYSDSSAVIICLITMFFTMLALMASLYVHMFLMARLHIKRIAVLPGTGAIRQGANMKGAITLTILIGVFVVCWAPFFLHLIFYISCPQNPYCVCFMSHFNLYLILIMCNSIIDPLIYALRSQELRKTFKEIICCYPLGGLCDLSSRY
METHOD_DESCRIPTION: cell-based or functional assay
Positions of bridges follow the written chain, without caps; N, C: chain ends. Non-standard residues stand in square brackets, D forms with d. Thz = O=C(O)[C@@H]1CSCN1; Aib = CC(C)(N)C(=O)O
One number for each entry, in nM.

Please go through the list and note MC4R cAMP EC50 for each binder.
1. cyclo(CVH[dF]RWCVH[dF]RW) (disulfide 1-7; SMILES CC(C)[C@@H]1NC(=O)[C@@H]2CSSC[C@H](NC(=O)[C@H](Cc3c[nH]c4ccccc34)NC(=O)[C@H](CCCNC(=N)N)NC(=O)[C@@H](Cc3ccccc3)NC(=O)[C@H](Cc3c[nH]cn3)NC1=O)C(=O)N[C@@H](C(C)C)C(=O)N[C@@H](Cc1c[nH]cn1)C(=O)N[C@H](Cc1ccccc1)C(=O)N[C@@H](CCCNC(=N)N)C(=O)N[C@@H](Cc1c[nH]c3ccccc13)C(=O)N2, also called c[c[Cys-Val-His-D-Phe-Arg-Trp-Cys]-Val-His-D-Phe-Arg-Trp]) [Chem. 36]
2. cyclo(CPH[dF]RWCPH[dF]RW) (disulfide 1-7; SMILES N=C(N)NCCC[C@@H]1NC(=O)[C@@H](Cc2ccccc2)NC(=O)[C@H](Cc2c[nH]cn2)NC(=O)[C@@H]2CCCN2C(=O)[C@@H]2CSSC[C@H](NC(=O)[C@H](Cc3c[nH]c4ccccc34)NC1=O)C(=O)N1CCC[C@H]1C(=O)N[C@@H](Cc1c[nH]cn1)C(=O)N[C@H](Cc1ccccc1)C(=O)N[C@@H](CCCNC(=N)N)C(=O)N[C@@H](Cc1c[nH]c3ccccc13)C(=O)N2, also called c[c[Cys-Pro-His-D-Phe-Arg-Trp-Cys]-Pro-His-D-Phe-Arg-Trp]) [Chem. 30]
3. cyclo(C[Aib]H[dF]HWCAKKKW) (disulfide 1-7; SMILES C[C@@H]1NC(=O)[C@@H]2CSSC[C@H](NC(=O)[C@H](Cc3c[nH]c4ccccc34)NC(=O)[C@H](CCCCN)NC(=O)[C@H](CCCCN)NC(=O)[C@H](CCCCN)NC1=O)C(=O)NC(C)(C)C(=O)N[C@@H](Cc1c[nH]cn1)C(=O)N[C@H](Cc1ccccc1)C(=O)N[C@@H](Cc1c[nH]cn1)C(=O)N[C@@H](Cc1c[nH]c3ccccc13)C(=O)N2, also called c[c[Cys-Aib-His-D-Phe-His-Trp-Cys]-Ala-Lys-Lys-Lys-Trp]) [Chem. 61]

[0.04, 0.03, 0.31]

Any idea what MC4R cAMP EC50 was measured for cyclo(C[Thz]H[dF]HWCARERR) (disulfide 1-7; SMILES C[C@@H]1NC(=O)[C@@H]2CSSC[C@H](NC(=O)[C@H](CCCNC(=N)N)NC(=O)[C@H](CCCNC(=N)N)NC(=O)[C@H](CCC(=O)O)NC(=O)[C@H](CCCNC(=N)N)NC1=O)C(=O)N1CSC[C@H]1C(=O)N[C@@H](Cc1c[nH]cn1)C(=O)N[C@H](Cc1ccccc1)C(=O)N[C@@H](Cc1c[nH]cn1)C(=O)N[C@@H](Cc1c[nH]c3ccccc13)C(=O)N2) [Chem. 113] ?
0.02
